Target: acetylcholine muscarinic M1 receptor (hM1) (Homo sapiens, UniProt P11229)
Construct: expressed in transfected cells; host or cells: CHOnfat (CHO cells, Geneticin selection)
Sequence (P11229 1-460): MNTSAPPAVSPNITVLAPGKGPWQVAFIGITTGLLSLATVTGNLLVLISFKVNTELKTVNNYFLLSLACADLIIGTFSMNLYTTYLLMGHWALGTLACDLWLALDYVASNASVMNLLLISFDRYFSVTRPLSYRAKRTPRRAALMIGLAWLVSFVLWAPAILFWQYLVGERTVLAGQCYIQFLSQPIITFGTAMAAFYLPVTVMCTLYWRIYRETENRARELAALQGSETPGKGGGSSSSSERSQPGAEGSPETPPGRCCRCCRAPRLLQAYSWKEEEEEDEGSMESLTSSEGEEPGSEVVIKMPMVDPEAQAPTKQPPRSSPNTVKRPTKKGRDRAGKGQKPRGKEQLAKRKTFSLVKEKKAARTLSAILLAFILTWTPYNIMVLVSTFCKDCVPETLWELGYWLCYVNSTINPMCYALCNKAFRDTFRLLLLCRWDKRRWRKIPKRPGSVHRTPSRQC
Assay: FLIPR intracellular calcium assay for M1 positive allosteric modulator activity in CHOnfat/hM1 cells
Assay type: cell-based
Conditions: Table 1, unit inferred, potentiation of acetylcholine EC20 (3 nM final), read-out: H Pot.
Assignment: determine reported EC50 for the given compounds.
Numbers only, in nM.

Please give EC50, item by item, for the list that follows.
1. COc1ccc(Cc2cc3c(=O)n([C@H]4CCCC[C@@H]4O)ccc3c3ncccc23)cc1 [Example 7]
2. COc1ccc(Cc2cc3c(=O)n([C@H]4CCOC[C@@H]4O)ccc3c3ncccc23)cc1 [Example 8]
3. O=c1c2cc(Cc3ccnc(Cl)c3)c3cccnc3c2ccn1[C@H]1CCCC[C@@H]1O [Example 11]
4. COc1cc(Cc2cc3c(=O)n([C@H]4CCCC[C@@H]4O)ccc3c3ncccc23)ccn1 [Example 10]

OUT:
1. 21
2. 6.2
3. 20.5
4. 21.9
